# test.target: human CCR2 (Homo sapiens)
# Sequence (P41597 1-360 isoform P41597-2): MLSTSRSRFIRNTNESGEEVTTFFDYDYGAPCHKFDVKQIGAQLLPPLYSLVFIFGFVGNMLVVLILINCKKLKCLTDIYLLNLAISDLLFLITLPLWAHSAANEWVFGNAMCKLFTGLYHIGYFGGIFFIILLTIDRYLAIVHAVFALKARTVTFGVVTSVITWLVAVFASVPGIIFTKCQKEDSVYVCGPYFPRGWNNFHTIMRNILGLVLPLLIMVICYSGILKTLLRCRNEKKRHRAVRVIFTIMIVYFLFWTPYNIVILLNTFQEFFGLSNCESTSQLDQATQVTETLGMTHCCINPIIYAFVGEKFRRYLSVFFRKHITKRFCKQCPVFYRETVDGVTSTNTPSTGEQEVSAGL
# test: Functional Ca2+ release test (B-1)
# experimental.parameters: Chem-1 cell line transfected with human CCR2, inhibition of MCP-1 effect, MCP-1 at EC50 (about 5 nM), Fluo-4
pIC50 values by entry
Please express pIC50 as -log10 of the molar concentration.

compound="Nc1nc(C(F)(F)F)c([S+]([O-])c2ccc(Cl)c(Cl)c2)c(=O)[nH]1 (centres unmarked)" measure_name=pIC50 assay_value=6.27
compound=NC(=O)Cc1nc(C(F)(F)F)c(Cc2cccc(Cl)c2)c(=O)[nH]1 measure_name=pIC50 assay_value=6.57
compound=NC(=O)Cc1nc(C(F)(F)F)c(Cc2cc(F)cc(C(F)(F)F)c2)c(=O)[nH]1 measure_name=pIC50 assay_value=6.40
compound=O=c1[nH]c(CO)nc(C(F)(F)F)c1Cc1ccc(Cl)c(Cl)c1 measure_name=pIC50 assay_value=7.85
compound=O=c1[nH]c(C2CC2)nc(C(F)(F)F)c1Cc1ccc(Cl)c(F)c1 measure_name=pIC50 assay_value=6.55
compound=Cc1nc(C(F)(F)F)c(Cc2ccc(Cl)c(Cl)c2)c(=O)[nH]1 measure_name=pIC50 assay_value=7.48

Recorded pIC50 (compound Nc1nc(C(F)(F)F)c(S(=O)(=O)c2ccc(Cl)c(C(F)(F)F)c2)c(=O)[nH]1 ): 6.96

Recorded pIC50 (compound NC(=O)Cc1nc(C(F)(F)F)c(Oc2ccc(Cl)c(C(F)(F)F)c2)c(=O)[nH]1 ): 8.10

----------
# test.target: human CCR2 (Homo sapiens)
# Sequence (P41597 1-360 isoform P41597-2): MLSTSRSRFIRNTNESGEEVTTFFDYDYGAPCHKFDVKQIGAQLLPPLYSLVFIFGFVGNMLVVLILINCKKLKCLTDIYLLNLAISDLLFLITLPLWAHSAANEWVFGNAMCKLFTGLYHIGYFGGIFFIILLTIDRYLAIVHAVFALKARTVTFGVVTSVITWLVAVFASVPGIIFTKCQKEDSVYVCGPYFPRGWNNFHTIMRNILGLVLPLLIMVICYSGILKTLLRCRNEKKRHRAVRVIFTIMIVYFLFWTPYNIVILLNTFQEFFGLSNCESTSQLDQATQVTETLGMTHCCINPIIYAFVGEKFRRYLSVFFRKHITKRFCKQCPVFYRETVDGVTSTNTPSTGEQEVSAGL
# test: Functional Ca2+ release test (B-1)
# experimental.parameters: Chem-1 cell line transfected with human CCR2, inhibition of MCP-1 effect, MCP-1 at EC50 (about 5 nM), Fluo-4
pIC50 values by entry
Please express pIC50 as -log10 of the molar concentration.

// known answers, use as guide
molecule=O=c1[nH]c(C2CC2)nc(C(F)(F)F)c1Cc1ccc(Cl)c(Cl)c1 measure_name=pIC50 assay_value=7.00
molecule=NC(=O)Cc1nc(C(F)(F)F)c(Cc2ccc(C(F)(F)F)c(Cl)c2)c(=O)[nH]1 measure_name=pIC50 assay_value=6.82
molecule="Nc1nc(C(F)(F)F)c([S+]([O-])c2ccc(Cl)c(C(F)(F)F)c2)c(=O)[nH]1 (stereo not drawn)" measure_name=pIC50 assay_value=6.93
molecule=NC(=O)Cc1nc(C(F)(F)F)c(Oc2ccc(Cl)c(F)c2)c(=O)[nH]1 measure_name=pIC50 assay_value=6.80
molecule=NC(=O)Cc1nc(C(F)(F)F)c(Oc2ccc(F)c(Cl)c2)c(=O)[nH]1 measure_name=pIC50 assay_value=6.96

The molecule Nc1nc(C(F)(F)F)c(Cc2ccc(Cl)c(F)c2)c(=O)[nH]1 , when measured on human CCR2 (Homo sapiens), yielded pIC50 of 7.16
